target: PfCHA (Plasmodium falciparum, UniProt C6KSN3); construct: full-length ORF (about 1321 bp, approx. 49 kDa) in pGREG505 (GAL1 promoter), expressed in S. cerevisiae vcx1 knock-out (Y03825), vacuole membrane; apoaequorin co-expressed as reporter; assay: whole-cell apoaequorin luminescence of cytosolic Ca2+ (AUC […]-16 s), 96-well
Sequence (C6KSN3 1-441): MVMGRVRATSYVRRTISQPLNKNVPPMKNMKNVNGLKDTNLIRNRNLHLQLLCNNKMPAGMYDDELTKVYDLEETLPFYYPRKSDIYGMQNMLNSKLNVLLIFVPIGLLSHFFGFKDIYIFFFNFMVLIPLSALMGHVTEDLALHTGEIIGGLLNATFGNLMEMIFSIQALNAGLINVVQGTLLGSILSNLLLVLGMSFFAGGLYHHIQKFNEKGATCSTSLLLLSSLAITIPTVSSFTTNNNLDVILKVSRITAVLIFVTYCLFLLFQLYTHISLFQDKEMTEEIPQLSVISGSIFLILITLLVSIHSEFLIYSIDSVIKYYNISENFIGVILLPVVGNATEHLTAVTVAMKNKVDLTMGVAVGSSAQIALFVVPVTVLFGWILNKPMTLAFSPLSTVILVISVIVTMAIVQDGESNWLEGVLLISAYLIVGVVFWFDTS
measured_endpoint: pIC50
Units for pIC50: none; it is -log10 of a concentration expressed in mol/L.

The compound identified as N=C(N)SCCc1ccc(OCc2ccc([N+](=O)[O-])cc2)cc1 [KB-R7943] registered its pIC50 at 4.76

====

biological target: Vcx1p (VCX1) (Saccharomyces cerevisiae); construct: full-length gene (1236 bp) in pGREG505 (GAL1 promoter), re-expressed in S. cerevisiae vcx1 knock-out (Y03825); apoaequorin co-expressed as reporter; assay: whole-cell apoaequorin luminescence of cytosolic Ca2+ (AUC […]-16 s), 96-well; settings: read-out: concentrations at which their transport was inhibited by 50%
Sequence (Q99385 whole entry): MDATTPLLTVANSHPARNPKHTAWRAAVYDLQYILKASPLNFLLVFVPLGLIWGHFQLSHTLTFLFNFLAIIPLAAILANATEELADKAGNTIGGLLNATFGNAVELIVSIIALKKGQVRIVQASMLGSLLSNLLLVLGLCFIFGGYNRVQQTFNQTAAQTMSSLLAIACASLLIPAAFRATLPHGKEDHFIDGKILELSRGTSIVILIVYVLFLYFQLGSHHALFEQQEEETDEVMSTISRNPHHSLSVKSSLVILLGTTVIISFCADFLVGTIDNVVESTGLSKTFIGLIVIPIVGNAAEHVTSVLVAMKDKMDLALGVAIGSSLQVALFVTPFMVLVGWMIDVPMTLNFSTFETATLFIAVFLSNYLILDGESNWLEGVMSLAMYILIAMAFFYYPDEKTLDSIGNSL
measured_endpoint: IC50 (µM)
Write the value in µM as a bare number.

The recorded IC50 for N=C(N)SCCc1ccc(OCc2ccc([N+](=O)[O-])cc2)cc1 [KB-R7943] is 12.5

Values were extracted from paper PMC3488005.
